# Test system: HSV-1
# assayComment: HSV Antiviral (ELISA) Assay
# Assay type: cell-based, herpes simplex virus type 1
# assaySetup: Human alphaherpesvirus 1, Vero, Vero cells, HSV-1; read-out: IC50 Ug/ml HSV
IC50 by entry:

Answered cases to consult:
| compound | measuredTarget | assayEndpoint | result |
| --- | --- | --- | --- |
| COc1ccc(Cl)cc1NC(=S)Nc1ccc(NC(C)=O)cc1 [Example 107] | HSV-1 | IC50 | > 50 µg/mL |
| CC(=O)Nc1ccc(NC(=S)Nc2ccc(OCCO)c(Cl)c2)cc1 [Example 265] | HSV-1 | IC50 | > 50 µg/mL |
| COc1cc(OCCO)c(Cl)cc1NC(=S)Nc1ccc(NC(C)=O)cc1 [Example 215] | HSV-1 | IC50 | > 50 µg/mL |
| COc1cc(N(C)C)c(NC(=S)Nc2ccc(NC(C)=O)cc2)cc1Cl [Example 227] | HSV-1 | IC50 | > 50 µg/mL |
| COc1cc(OC)c(NC(=S)Nc2ccc(NC(C)=O)c(C(F)(F)F)c2)cc1Cl [Example 305] | HSV-1 | IC50 | > 10 µg/mL |

The compound CC(=O)Nc1ccc(NC(=S)Nc2ccccc2[N+](=O)[O-])cc1 [Example 878] showed IC50 equal to 50 µg/mL

The compound CC(=O)Nc1ccc(NC(=S)Nc2ccc(C(C)O)c(Cl)c2)cc1 (stereo not drawn) [Example 862] showed IC50 equal to > 10 µg/mL

The compound CC(=O)Nc1ccc(NC(=S)Nc2cc(Cl)c(OCC(N)=O)c(Cl)c2)cc1 [Example 882] showed IC50 equal to > 50 µg/mL

The compound COc1ccc(Cl)c(NC(=S)Nc2ccc(NC(C)=O)cc2)c1 [Example 881] showed IC50 equal to 40 µg/mL

====

inhibition at 10 µg/mL by entry:
# Test system: VZV strain Ellen
# assayComment: VZV Antiviral (ELISA) Assay
# Format: cell-based, varicella-zoster virus
# assaySetup: Human alphaherpesvirus 3, Fibroblast, read-out: % inhibition 10 ug/ml VZV, 10 ug/ml; human foreskin fibroblast cells
Numeric answer only, unit % assumed.

| chemicalStructure | inhibition at 10 µg/mL [%] |
| --- | --- |
| CCOC(=O)Nc1ccc(NC(=S)Nc2ccc(NC(C)=O)cc2)cc1Cl | 36 |
| COc1cc(OC)c(NC(=S)Nc2ccc(NC(C)=O)c(C(=O)O)c2)cc1Cl | 31 |
| COc1cc(NC(=S)Nc2ccc(NC(C)=O)cc2)c(OC)cc1Cl | 25 |
| COc1c(C)cc(NC(=S)Nc2ccc(NC(C)=O)cc2)cc1Cl | 15 |
| COc1ccc(NC(=S)Nc2ccc(NC(C)=O)cc2)c(O)c1 | 11 |
| COc1cc(N(C)C)c(NC(=S)Nc2ccc(NC(C)=O)cc2)cc1Cl | 32 |
| COc1c(Br)cc(NC(=S)Nc2ccc(NC(C)=O)cc2)c(OC)c1Br | 56 |
| CC(=O)Nc1ccc(NC(=S)Nc2cc(Cl)c(Oc3ccccc3)c(Cl)c2)cc1 | 45 |

Now take the following compound into account.
The compound COc1cc(OC)c(NC(=S)Nc2cc(O)c(NC(C)=O)cc2Cl)cc1Cl showed inhibition at 10 µg/mL equal to 28
